test: Viability qHTS for spleen associated tyrosine kinase inhibitor (SYKi) naive MV4-11 cells (AID 1963823); settings: MV4-11 AML viability, CellTiter-Glo luminescence, 72 h; series mostly up to 45 µM; also: nearly all actives have a fitted effect of over 40% in size
Inconclusive results are not listed. Active and inactive are the calls of the source. Calls follow the shape of the dose curve; as a rule, active = well fitted cell-killing curve with a large enough effect; inconclusive = small, poorly fitted or top-dose-only effect, or effect the other way; inactive = no such curve, though single readings can be large or run the other way.
Returns: one label drawn from active, inactive

# molecule, answer label
data = [
    ("CCC1(CC)C(=O)C=CNC1=O", "inactive"),
    ("CC1(C)C(=O)N(c2ccc(C#N)c(C(F)(F)F)c2)C(=S)N1Cc1ccc(-c2cn[nH]n2)cc1", "active"),
    ("COc1ccc(C(=O)N2CCCC2=O)cc1", "inactive"),
    ("CC1=CC2/C=C(\\C)CCC(O)C(O)/C=C/C(=O)C23C(=O)NC(CC(C)C)C3C1C (stereo not drawn)", "active"),
    ("C[C@]12CC[C@H](O[C@@H]3O[C@H](CO)[C@@H](O)[C@H](O)[C@H]3O)CC1=CC[C@@H]1C2CC[C@]2(C)[C@@H](C3=CC(=O)OC3)CC[C@]12O (stereo partly drawn)", "active"),
    ("CC[C@@H]1C[C@H]2CC[C@H](O2)[C@H](C)C(=O)O[C@@H](C)C[C@@H]2CC[C@@H](O2)[C@@H](C)C(=O)O[C@H](CC)C[C@H]2CC[C@H](O2)[C@H](C)C(=O)O[C@@H](C)C[C@@H]2CC[C@@H](O2)[C@@H](C)C(=O)O1", "active"),
    ("O=C1Nc2ccc3ncsc3c2/C1=C/c1cnc[nH]1", "active"),
    ("COC12C(COC(N)=O)C3=C(C(=O)C(C)=C(N)C3=O)N1CC1C2N1C (stereo not drawn)", "active"),
    ("CO/C1=C\\C(C)=C\\[C@@H](C)[C@@H](O)[C@@H](C)C/C(C)=C/C=C/[C@H](OC)[C@@H]([C@@H](C)[C@@H](O)[C@H](C)[C@@]2(O)C[C@@H](O)[C@H](C)[C@@H](C(C)C)O2)OC1=O", "active"),
    ("O=C1C[C@@H]2OCC=C3CN4CC[C@]56c7ccccc7N1[C@H]5[C@H]2[C@H]3C[C@H]46", "inactive"),
]

Which result was noted for this molecule in the test: c1ccc2c(c1)Sc1ccccc1N2CC1CN2CCC1CC2 (stereo not drawn)
active

###

experiment: Viability qHTS for spleen associated tyrosine kinase inhibitor (SYKi) drug resistant MV4-11 cells (AID 1963824); conditions: SYKi-resistant MV4-11 viability, CellTiter-Glo, 72 h; series mostly up to 45 µM; also: nearly all actives have a fitted effect of over 35% in size
Inconclusive results are not listed. Activity calls are given as the source filed them. The call rests on the fitted dose curve; in most records, active means well fitted cell-killing curve with a large enough effect; inconclusive means small, poorly fitted or top-dose-only effect, or effect the other way; inactive means no such curve, though single readings can be large or run the other way.
Your answer must be one of the following: active, inactive

Fill in: this test's call for `C[C@]12CC[C@H](O)C[C@@H]1CC[C@@H]1[C@@H]2CC[C@]2(C)[C@@H](C3=CC(=O)OC3)CC[C@]12O` is ___
active

Called result for `CC(C)(O)/C=C/C(=O)[C@](C)(O)[C@H]1[C@H](O)C[C@@]2(C)[C@@H]3CC=C4[C@@H](C=C(O)C(=O)C4(C)C)[C@]3(C)C(=O)C[C@]12C`
active

Returns: the outcome recorded for CN1C(=O)C(Cc2ccc3ccccc3c2)N=C(c2ccc(O)cc2)c2cc(Cl)ccc21 (stereo not drawn) in this assay.
active

Hello, I am checking results. What call was entered for CN1C(=O)COc2c(C(=O)NC3CN4CCC3CC4)cc(Cl)cc21 (stereo not drawn) ?
inactive

GET /call?item= `COc1cc2c(cc1OC)[C@@]13CCN4CC5=CCO[C@H]6CC(=O)N2[C@H]1[C@H]6[C@H]5C[C@H]43` returns the recorded outcome of this test.
inactive

Please state the recorded outcome for this compound: CC1=CC(=O)[C@@H](O)[C@@]2(C)C1C[C@H]1OC(=O)[C@H](O)[C@@]3(O)[C@@H](C)[C@@H](O)[C@H](O)C2[C@@]13C (stereo partly drawn)
active

Given `Cc1ccc(-c2nc3ccc(C)cn3c2CC(=O)N(C)C)cc1` , state the outcome it received in this test.
inactive

Record lookup: outcome of this test for Cc1ccc(-n2nccn2)c(C(=O)N2CCN(c3nc4cc(Cl)ccc4o3)CCC2C)c1 (stereo not drawn) ?
active

###

experiment: Viability qHTS for spleen associated tyrosine kinase inhibitor (SYKi) naive MV4-11 cells (AID 1963823); conditions: MV4-11 AML viability, CellTiter-Glo luminescence, 72 h; series mostly up to 45 µM; also: nearly all actives have a fitted effect of over 40% in size
Inconclusive results are not listed. Calls of active or inactive are those of the source. Calls come from the whole dose curve; as a rule, active = well fitted cell-killing curve with a large enough effect; inconclusive = small, poorly fitted or top-dose-only effect, or effect the other way; inactive = no such curve, though single readings can be large or run the other way.
endpoint: viability (% of control)

Record excerpt, results attached:
# molecule, viability (% of control)
data = [
    ("COC1CC(OC2CCC3(C)C(=CCC4C3CCC3(C)C(C(C)OC5OC(COC6OC(CO)C(O)C(O)C6O)C(O)C(O)C5O)CCC43O)C2)OC(C)C1OC1OC(C)C(O)C(OC)C1O (configuration not stated)", "91.8% [at 9.25 µM] (inactive)"),
    ("C=CC(C)(O)CC/C=C(\\C)C(=O)O[C@H]1[C@H](O)[C@@H](CO)O[C@@H](OC(=O)[C@]23CCC(C)(C)CC2C2=CCC4[C@@]5(C)CC[C@H](O[C@@H]6O[C@H](CO[C@@H]7OC[C@H](O)[C@H](O)[C@H]7O[C@@H]7OC[C@@H](O)[C@H](O)[C@H]7O)[C@@H](O)[C@H](O)[C@H]6O)C(C)(C)C5CC[C@@]4(C)[C@]2(C)CC3)[C@@H]1OC1OC(C)C(O[C@@H]2OC[C@@H](O)[C@H](O[C@@H]3OC[C@@H](O)[C@H](O)[C@H]3O)[C@H]2O)C(O)C1O (some centres not stated)", "65.2% [at 9.25 µM] (inactive)"),
    ("Nc1ccn(C[C@@H](CO)OCP(=O)(O)O)c(=O)n1", "57.6% [at 9.25 µM] (inactive)"),
]

Each molecule below has a reported value. Please supply its viability (% of control).
1. CN(CC[C@H](N)CC(=O)N[C@H]1C=C[C@@H](n2ccc(N)nc2=O)O[C@@H]1C(=O)O)C(=N)N
2. COC1CC(O[C@H]2CC[C@@]3(C)C(=CCC4C3C(O)[C@@H](O)[C@]3(C)[C@@H](C(C)=O)CC[C@]43O)C2)OC(C)C1OC1CC(OC)C(OC2OC(C)C(O)C(O)C2O)C(C)O1 (some centres not stated)

83.5% [at 9.25 µM] (inactive)
67.1% [at 9.25 µM] (inactive)

Report viability (% of control) for every entry below.
1. C/C=C(\C)C(=O)OC1CC2C(CC=C3CC(OC4CC(OC)C(OC5CC(OC)C(OC6OC(C)C(OC7OC(CO)C(O)C(O)C7O)C(OC)C6O)C(C)O5)C(C)O4)CCC32C)C2(O)CCC(C(C)=O)C12C (configuration not stated)
2. NCC(CC(=O)O)c1ccc(Cl)cc1 (configuration not stated)

1. 73.7% [at 9.25 µM] (inactive)
2. 90.7% [at 0.588 µM] (inactive)

###

test: Cellular viability qHTS for adrenocortical cancer (ACC) cell line SW-13 (AID 1963989); details: SW-13 ACC cells viability, CellTiter-Glo, 48 h; hits give low values;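 also: cells grown in serum-free medium with ITS supplement; % is scaled to controls: 0 for no effect and ±100 for the full control effect; nearly all actives have a fitted effect of over 65% in size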
Results filed as inconclusive are left out.
endpoint: activity (max response) (%)
Answers are plain numbers, in %.

# compound, activity (max response), %
measured = [
    ("CN1C2CCC(C)(C)C1CC(OC(=O)C(O)(c1cccs1)c1cccs1)C2 (stereo not given)", -3.56),
    ("CC(C)N(CCC(C(N)=O)(c1ccccc1)c1ccccn1)C(C)C (stereo not given)", 4.36),
    ("C[C@]12CC[C@H]3[C@@H](CCC4=CC(=O)CC[C@@H]43)[C@@H]1CC[C@@H]2OC(=O)CCc1ccccc1", -0.27),
]

Each compound below has a recorded value; state its activity (max response).
1. Cn1c(/C=C/CO)c(CO)c2c1C(=O)C=C(N1CC1)C2=O
2. CNC(C)(C)Cc1ccccc1

-6.24
-4.09

###

test: Viability qHTS for spleen associated tyrosine kinase inhibitor (SYKi) naive MV4-11 cells (AID 1963823); conditions: MV4-11 AML viability, CellTiter-Glo luminescence, 72 h; series mostly up to 45 µM; also: nearly all actives have a fitted effect of over 40% in size
Inconclusive results are not listed. Active and inactive are the calls of the source. Calls come from the whole dose curve; as a rule, active = well fitted cell-killing curve with a large enough effect; inconclusive = small, poorly fitted or top-dose-only effect, or effect the other way; inactive = no such curve, though single readings can be large or run the other way.
# output must be one of active, inactive

# compound, answer label
data = [
    ("C=CCN1CC[C@]23c4c5ccc(O)c4O[C@H]2[C@@H](O)CC[C@@]3(O)[C@H]1C5", "inactive"),
    ("COc1ccc(C(=O)c2c(C)n(CCN3CCOCC3)c3ccccc23)cc1", "active"),
    ("CCc1c(C(=O)C(N)=O)c2c(OCC(=O)O)cccc2n1Cc1ccccc1", "inactive"),
    ("C1CCC(NC2CCCCC2)CC1", "inactive"),
]

# outcome recorded in this test, key = CCC1NC(=O)C2C(Cl)C(Cl)CN2C(=O)C(C(C)O)NC(=O)CC(c2ccccc2)NC(=O)C(CO)NC1=O (centres undefined)
inactive

Hi, do you know how `CN(C)[C@@H]1C(=O)C(C(N)=O)=C(O)[C@@]2(O)C(=O)C3=C(O)c4c(O)cccc4[C@@](C)(O)[C@H]3[C@H](O)[C@@H]12` came out in this test?
inactive

Name the outcome recorded for `C=C1CC[C@@]2(O)[C@H]3Cc4ccc(O)c5c4[C@@]2(CCN3CC2CC2)[C@H]1O5` in the assay.
inactive

Hey, what did the test say about CCCCC1C(=O)NC(=O)N(C2CCCCC2)C1=O (centres undefined) ?
inactive

Identify the outcome logged in this assay for the compound shown: `C[C@]12CC[C@H](O)C[C@@H]1CC[C@@H]1[C@@H]2CC[C@]2(C)[C@@H](C3=CC(=O)OC3)CC[C@]12O`
active

// provenance: PubChem BioAssay (NCATS)
